Reference source for all entries: ChEMBL document CHEMBL1201862

Reported GI50 by item:
System: NCI-H460
test_protocol: NCI tumour cell line growth inhibition, 48 h
The source made the active and inactive calls. Rule as the data show it: active = GI50 up to about 1.1 µM and inactive = higher.

Request: Any idea what its GI50 is? The compound is N=c1nc(N)c2cc3c(N)nc(=N)c3cc12
Result: 22.5 µM (inactive)

Request: Any idea what its GI50 is? The compound is CC(=O)OCC1OC(OCc2ccccc2)C(Br)C(OC(C)=O)C1OC(C)=O (stereo not given)
Result: > 100 µM (inactive)

---

Reported GI50 by item:
Test system: ACHN
test_protocol: NCI tumour cell line growth inhibition, 48 h
Calls of active or inactive are those of the source. No stated cut-off is given here; in the data, active = GI50 up to about 1.1 µM and inactive = higher.

NS(=O)(=O)c1ccc(N2C(=O)C(=O)N(c3ccccc3)C2=S)cc1; > 100 µM (inactive)
CN1CCC(=O)/C(=C/c2ccccc2)C1; 17.9 µM (inactive)
Cn1cc(NC(=O)c2cc(NC(=O)CNC(=N)N)cn2C)cc1C(=O)NCCC(=N)N [NETROPSIN CHLORIDE]; > 100 µM (inactive)
Cc1ccc(Nc2c3c(c(C#N)c4nc5ccccc5n24)CCCC3)cc1; 21.6 µM (inactive)
Cc1c(C)c(C)c(CC2(C)CSC2)c(CC2(C)CSC2)c1C; > 100 µM (inactive)

Request: Any idea what its GI50 is? The compound is COc1ccc(-c2nc3cc(C(F)(F)F)ccc3n2CC2CCCN3CCCCC23)cc1 (stereo not given)
Result: 15.6 µM (inactive)

Request: Any idea what its GI50 is? The compound is Cc1ccc(/N=N/C(=N\c2ccc(F)cc2)c2ccc(N(CCC#N)CCC#N)cc2)cc1
Result: > 100 µM (inactive)

Request: Any idea what its GI50 is? The compound is Cn1cnc2c(NCc3ccccc3)nc(NCCO)nc21
Result: 35.9 µM (inactive)

Request: Any idea what its GI50 is? The compound is CC(=O)OCc1cncn1S(=O)(=O)c1ccc(C)cc1
Result: > 100 µM (inactive)

Request: Any idea what its GI50 is? The compound is O=C(Nc1cccc(NC(=O)C(=O)C2CCC3=C(Sc4ccccc4N3)C2=O)n1)C(=O)C1CCC2=C(Sc3ccccc3N2)C1=O (stereo not given)
Result: 76.6 µM (inactive)
